These data points were gathered from patent US20240317868A1.

Biological target: T1, human IL1RAP (human, UniProt Q9NPH3 21-367, limits assumed, biotinylated in the ELISA screens (site not stated))
T1 construct: also called huIL1RAP; IL1RAP antigen
T1 sequence (looked up): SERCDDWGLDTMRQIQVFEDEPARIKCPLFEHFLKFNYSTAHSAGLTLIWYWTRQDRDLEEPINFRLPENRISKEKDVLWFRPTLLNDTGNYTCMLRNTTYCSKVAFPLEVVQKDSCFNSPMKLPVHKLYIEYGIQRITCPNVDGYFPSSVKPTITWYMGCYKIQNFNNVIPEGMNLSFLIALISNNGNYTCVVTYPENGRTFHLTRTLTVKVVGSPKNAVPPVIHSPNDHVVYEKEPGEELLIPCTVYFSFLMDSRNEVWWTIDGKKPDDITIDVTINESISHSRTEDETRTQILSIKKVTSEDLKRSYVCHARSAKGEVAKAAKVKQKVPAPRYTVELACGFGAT
Test: ELISA of point mutant IgG (light chain mutant with the parental chimeric heavy chain, CHO-E expression), one bar each, concentration not given
PARAMETER: binding result

- BINDER: "GO11 chimeric IgG, light chain point mutant VK-K52S (antibody, V domains shown, Light chain mutant paired with the parental chimeric heavy chain; IgG backbone, expressed in CHO-E) VH: QVHLQQSGPELVRPGTSVKISCEASGYIFLTYWMNWVKQRPGQGLEWIGQIFPASDSTYYNEMFKDKARFTVDKSSSTAYMQFSSLTSEDTAVYFCARSGPYSYYAGGYALDYWGQGTSVTVSS VL: DIQMTQSPASLSASVGETVTITCRTSENINSYLAWYQQKQGKSPQLLVHYASTLAEGVPSRFSGSGSGTQFSLKINSLKPEDFGSYYCQHHYGTSLTFGAGTKLELK"
  MEASURED RESULT: "binds"
- BINDER: "VK-H91S (antibody, V domains shown, germlining point mutant, paired with the parental chimeric heavy chain; also called GO11 chimeric IgG, light chain point mutant H91S; copies: 2 + 2) VH: QVHLQQSGPELVRPGTSVKISCEASGYIFLTYWMNWVKQRPGQGLEWIGQIFPASDSTYYNEMFKDKARFTVDKSSSTAYMQFSSLTSEDTAVYFCARSGPYSYYAGGYALDYWGQGTSVTVSS VL: DIQMTQSPASLSASVGETVTITCRTSENINSYLAWYQQKQGKSPQLLVHYAKTLAEGVPSRFSGSGSGTQFSLKINSLKPEDFGSYYCQHSYGTSLTFGAGTKLELKR"
  MEASURED RESULT: "binds"
- BINDER: "VK-Y50A (antibody, V domains shown, germlining point mutant, paired with the parental chimeric heavy chain; also called GO11 chimeric IgG, light chain point mutant Y50A; copies: 2 + 2) VH: QVHLQQSGPELVRPGTSVKISCEASGYIFLTYWMNWVKQRPGQGLEWIGQIFPASDSTYYNEMFKDKARFTVDKSSSTAYMQFSSLTSEDTAVYFCARSGPYSYYAGGYALDYWGQGTSVTVSS VL: DIQMTQSPASLSASVGETVTITCRTSENINSYLAWYQQKQGKSPQLLVHAAKTLAEGVPSRFSGSGSGTQFSLKINSLKPEDFGSYYCQHHYGTSLTFGAGTKLELKR"
  MEASURED RESULT: "binds"
